The entries below are paired with their reported Ratio.
ASSAY_COMMENT: Binding affinity to Ferric ion assessed as retention ratio by measuring compound detected in elution fraction/total compound detected at 2.55 umol by immobilized metal-ion affinity chromatography
MEASUREMENT_SETUP: dose 2.55 µmol
TEST_READOUT: Ratio

{"MOLECULE_SMILES": "Cc1[nH]c2ccccc2c1CCNCc1ccc(/C=C/C(=O)NO)cc1", "MEASUREMENT": 1}
{"MOLECULE_SMILES": "O=c1cccccc1O", "MEASUREMENT": 0}
{"MOLECULE_SMILES": "O=C(CCCCCCC(=O)Nc1ccccc1)NO", "MEASUREMENT": 0}
{"MOLECULE_SMILES": "O=C(O)c1cc(/N=N/c2ccc(S(=O)(=O)Nc3ccccn3)cc2)ccc1O", "MEASUREMENT": 1}
{"MOLECULE_SMILES": "O=C(N[C@H]1CCS[C@H]2CCC[C@@H](C(=O)O)N2C1=O)[C@@H](S)Cc1ccccc1", "MEASUREMENT": 0}
{"MOLECULE_SMILES": "C[C@H](CSC(=O)c1ccccc1)C(=O)N1C[C@@H](Sc2ccccc2)C[C@H]1C(=O)O", "MEASUREMENT": 0}
{"MOLECULE_SMILES": "CC1(C)Cc2c(-c3ccccc3)c(-c3ccc(Cl)cc3)c(CC(=O)O)n2C1", "MEASUREMENT": 0.39}
{"MOLECULE_SMILES": "CC(=O)Nc1ccc(C(=O)Nc2ccccc2N)cc1", "MEASUREMENT": 0}
{"MOLECULE_SMILES": "O=C(/C=C/c1cccc(S(=O)(=O)Nc2ccccc2)c1)NO", "MEASUREMENT": 0}
{"MOLECULE_SMILES": "C[C@H](CS)C(=O)N1CCC[C@H]1C(=O)O", "MEASUREMENT": 0}
{"MOLECULE_SMILES": "NCCCC[C@H](N[C@@H](CCc1ccccc1)C(=O)O)C(=O)N1CCC[C@H]1C(=O)O", "MEASUREMENT": 0}

====

ASSAY_COMMENT: Binding affinity to Ferric ion assessed as performance ratio ratio by measuring product of accounting ratio and retention ratio at 2.55 umol by immobilized metal-ion affinity chromatography
MEASUREMENT_SETUP: dose 2.55 µmol

{"MOLECULE_SMILES": "C[C@H](CS)C(=O)N1CCC[C@H]1C(=O)O", "Ratio": 0}
{"MOLECULE_SMILES": "Cc1ccc(Cl)c(Nc2ccccc2C(=O)O)c1Cl", "Ratio": 0}
{"MOLECULE_SMILES": "O=C(CCCCCCC(=O)Nc1ccccc1)NO", "Ratio": 0}
{"MOLECULE_SMILES": "Cc1[nH]c2ccccc2c1CCNCc1ccc(/C=C/C(=O)NO)cc1", "Ratio": 0.03}
{"MOLECULE_SMILES": "Nc1ccc(C(=O)O)c(O)c1", "Ratio": 0.08}
{"MOLECULE_SMILES": "O=C(N[C@H]1CCS[C@H]2CCC[C@@H](C(=O)O)N2C1=O)[C@@H](S)Cc1ccccc1", "Ratio": 0}
{"MOLECULE_SMILES": "COc1c(N2C[C@@H]3CCCN[C@@H]3C2)c(F)cc2c(=O)c(C(=O)O)cn(C3CC3)c12", "Ratio": 0.15}
{"MOLECULE_SMILES": "C[C@H](CSC(=O)c1ccccc1)C(=O)N1C[C@@H](Sc2ccccc2)C[C@H]1C(=O)O", "Ratio": 0}
{"MOLECULE_SMILES": "CC(=O)Nc1ccc(C(=O)Nc2ccccc2N)cc1", "Ratio": 0}
{"MOLECULE_SMILES": "Nc1ccccc1NC(=O)c1ccc(CNC(=O)OCc2cccnc2)cc1", "Ratio": 0}
{"MOLECULE_SMILES": "O=C(/C=C/c1cccc(S(=O)(=O)Nc2ccccc2)c1)NO", "Ratio": 0}

====

ASSAY_COMMENT: Binding affinity to gallium ion assessed as accounting ratio by measuring total compound detected/total compound adsorbed at 2.55 umol by immobilized metal-ion affinity chromatography
MEASUREMENT_SETUP: dose 2.55 µmol
The entries below are paired with their reported Ratio.

{"MOLECULE_SMILES": "CC(=O)Nc1ccc(C(=O)Nc2ccccc2N)cc1", "Ratio": 0.99}
{"MOLECULE_SMILES": "Nc1ccc(C(=O)O)c(O)c1", "Ratio": 0.69}
{"MOLECULE_SMILES": "Cc1ccc(Cl)c(Nc2ccccc2C(=O)O)c1Cl", "Ratio": 1.01}
{"MOLECULE_SMILES": "Nc1ccccc1NC(=O)c1ccc(CNC(=O)OCc2cccnc2)cc1", "Ratio": 0.98}
{"MOLECULE_SMILES": "C[C@H](N[C@@H](CCc1ccccc1)C(=O)O)C(=O)N1CCC[C@H]1C(=O)O", "Ratio": 1}

====

ASSAY_COMMENT: Binding affinity to Nickel cation assessed as performance ratio ratio by measuring product of accounting ratio and retention ratio at 2.55 umol by immobilized metal-ion affinity chromatography
MEASUREMENT_SETUP: dose 2.55 µmol

{"MOLECULE_SMILES": "Cc1[nH]c2ccccc2c1CCNCc1ccc(/C=C/C(=O)NO)cc1", "Ratio": 0.84}
{"MOLECULE_SMILES": "O=C(O)c1cc(/N=N/c2ccc(S(=O)(=O)Nc3ccccn3)cc2)ccc1O", "Ratio": 0.89}
{"MOLECULE_SMILES": "C[C@H](CS)C(=O)N1CCC[C@H]1C(=O)O", "Ratio": 0}
{"MOLECULE_SMILES": "Cc1ccc(Cl)c(Nc2ccccc2C(=O)O)c1Cl", "Ratio": 0}
{"MOLECULE_SMILES": "CC1(C)Cc2c(-c3ccccc3)c(-c3ccc(Cl)cc3)c(CC(=O)O)n2C1", "Ratio": 0.03}

====

ASSAY_COMMENT: Binding affinity to cupric ion assessed as retention ratio by measuring compound detected in elution fraction/total compound detected at 2.55 umol by immobilized metal-ion affinity chromatography
MEASUREMENT_SETUP: dose 2.55 µmol
TEST_READOUT: Ratio

{"MOLECULE_SMILES": "O=C(N[C@H]1CCS[C@H]2CCC[C@@H](C(=O)O)N2C1=O)[C@@H](S)Cc1ccccc1", "MEASUREMENT": 0}
{"MOLECULE_SMILES": "CC1(C)Cc2c(-c3ccccc3)c(-c3ccc(Cl)cc3)c(CC(=O)O)n2C1", "MEASUREMENT": 0}
{"MOLECULE_SMILES": "C[C@H](CSC(=O)c1ccccc1)C(=O)N1C[C@@H](Sc2ccccc2)C[C@H]1C(=O)O", "MEASUREMENT": 0}

====

ASSAY_COMMENT: Binding affinity to Zinc ion assessed as retention ratio by measuring compound detected in elution fraction/total compound detected at 2.55 umol by immobilized metal-ion affinity chromatography
MEASUREMENT_SETUP: dose 2.55 µmol
TEST_READOUT: Ratio

{"MOLECULE_SMILES": "COc1c(N2C[C@@H]3CCCN[C@@H]3C2)c(F)cc2c(=O)c(C(=O)O)cn(C3CC3)c12", "TEST_READOUT": "Ratio", "MEASUREMENT": 1}
{"MOLECULE_SMILES": "CC(=O)Nc1ccc(C(=O)Nc2ccccc2N)cc1", "TEST_READOUT": "Ratio", "MEASUREMENT": 0}
{"MOLECULE_SMILES": "NCCCC[C@H](N[C@@H](CCc1ccccc1)C(=O)O)C(=O)N1CCC[C@H]1C(=O)O", "TEST_READOUT": "Ratio", "MEASUREMENT": 0}
{"MOLECULE_SMILES": "O=c1cccccc1O", "TEST_READOUT": "Ratio", "MEASUREMENT": 1}
{"MOLECULE_SMILES": "C[C@H](CS)C(=O)N1CCC[C@H]1C(=O)O", "TEST_READOUT": "Ratio", "MEASUREMENT": 1}
{"MOLECULE_SMILES": "Cc1[nH]c2ccccc2c1CCNCc1ccc(/C=C/C(=O)NO)cc1", "TEST_READOUT": "Ratio", "MEASUREMENT": 1}
{"MOLECULE_SMILES": "O=C(/C=C/c1cccc(S(=O)(=O)Nc2ccccc2)c1)NO", "TEST_READOUT": "Ratio", "MEASUREMENT": 1}
{"MOLECULE_SMILES": "Cc1ccc(Cl)c(Nc2ccccc2C(=O)O)c1Cl", "TEST_READOUT": "Ratio", "MEASUREMENT": 0}
{"MOLECULE_SMILES": "C[C@H](N[C@@H](CCc1ccccc1)C(=O)O)C(=O)N1CCC[C@H]1C(=O)O", "TEST_READOUT": "Ratio", "MEASUREMENT": 0.01}
{"MOLECULE_SMILES": "C[C@H](CSC(=O)c1ccccc1)C(=O)N1C[C@@H](Sc2ccccc2)C[C@H]1C(=O)O", "TEST_READOUT": "Ratio", "MEASUREMENT": 0.01}
{"MOLECULE_SMILES": "O=C(CCCCCCC(=O)Nc1ccccc1)NO", "TEST_READOUT": "Ratio", "MEASUREMENT": 1}
{"MOLECULE_SMILES": "CC1(C)Cc2c(-c3ccccc3)c(-c3ccc(Cl)cc3)c(CC(=O)O)n2C1", "TEST_READOUT": "Ratio", "MEASUREMENT": 0.03}
